system: Plasmodium falciparum; experiment: Screen against P. falciparum Asexual Blood Stage (ABS), at 5uM; assay type: functional, Dd2; conditions: tested at 5 uM
The campaign covered roughly 65,000 compounds. About 2,100 (3.2%) showed an effect of 50% or more. The median lay at about -52%. The full list was thinned out, with strong results kept by preference.
READOUT: INHIBITION (%)
Reply with just the number (in %).

Give the measured INHIBITION of CS(=O)(=O)N[C@@H]1CN(Cc2ccncc2)C[C@@H]2CCCO[C@@H]21 .
-73

Give the measured INHIBITION of CN1C[C@@H]2C[C@H](C(=O)Nc3cccnc3)[C@H](C1)O2 .
-69.3

Give the measured INHIBITION of Cc1noc(C)c1CN1C[C@@H]2COC[C@@H](C(=O)N3CCCO3)[C@@H]2C1 .
-40.4

Give the measured INHIBITION of Cc1cnc(N2CCN3C[C@H](OCc4ccccn4)C[C@H]3C2)nc1 .
-24.1

Give the measured INHIBITION of Cn1cc(CN2CCCC3(CCN(c4cccnc4)C3=O)C2)cn1 (stereo unspecified) .
-131

Give the measured INHIBITION of Cn1cc(N2CC[C@@H]3CN(Cc4ccncc4)C[C@H]3C2=O)cn1 .
-102
